# System: biotinyl-Phe-oxazolone
# assayName: self-aminoacylation, catalytic enhancement (BFO) (fold over background); higher = more active; k-Seq, kA / k0A0; sequences stand for … in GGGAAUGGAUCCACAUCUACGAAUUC…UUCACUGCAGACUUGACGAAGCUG
Variants at the floor of the assay were thinned out.
metricName: self-aminoacylation
Respond using a number only.

Some sequences with recorded self-aminoacylation:
[
  {
    "macromoleculeSequence": "AAGUUUACUAAUAGCCGCAAG [Fam3.1 aminoacylation ribozyme variant]",
    "quantitativeResult": 2.1
  },
  {
    "macromoleculeSequence": "AUUACCCUGGUCAUUGGGUGA [Fam2.1 aminoacylation ribozyme variant]",
    "quantitativeResult": 93.4
  },
  {
    "macromoleculeSequence": "AUUCACCUAGGUCGUCGGCUG [Fam2.2 aminoacylation ribozyme variant]",
    "quantitativeResult": 4.94
  },
  {
    "macromoleculeSequence": "CCACACUUCAAGCAACCGGUG [Fam1B.1 aminoacylation ribozyme variant]",
    "quantitativeResult": 33.9
  },
  {
    "macromoleculeSequence": "AAGUUUGCUAUUAGGCGCAAG [Fam3.1 aminoacylation ribozyme variant]",
    "quantitativeResult": 0.81
  },
  {
    "macromoleculeSequence": "AUUACCCUGGUCAUCGCGUGG [Fam2.1 aminoacylation ribozyme variant]",
    "quantitativeResult": 35.6
  }
]

query: Please supply the value of reported self-aminoacylation for the item ACACACUUCAAUCAAUCGGUC [Fam1B.1 aminoacylation ribozyme variant]
result: 29.4

query: Please supply the value of reported self-aminoacylation for the item AUUCACCUAGGUCACAGGGUG [Fam2.2 aminoacylation ribozyme variant]
result: 5.68

query: Please supply the value of reported self-aminoacylation for the item CCACACUUCAAGCAACCCGUC [Fam1B.1 aminoacylation ribozyme variant]
result: 0.819

* * *

# Tested on: biotinyl-Phe-oxazolone
# assayName: self-aminoacylation, catalytic enhancement (BFO) (fold over background); higher = more active; k-Seq, kA / k0A0; sequences stand for … in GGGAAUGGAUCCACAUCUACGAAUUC…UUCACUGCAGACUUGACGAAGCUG
Variants at the floor of the assay were thinned out.
metricName: self-aminoacylation
Respond using a number only.

query: Please supply the value of reported self-aminoacylation for the item CUAGUUCAAACAGUCGGUCUG [Fam1A.1 aminoacylation ribozyme variant]
result: 0.551

query: Please supply the value of reported self-aminoacylation for the item AAAUUUGCUAAUAGGCGCAAG [Fam3.1 aminoacylation ribozyme variant]
result: 1.29

query: Please supply the value of reported self-aminoacylation for the item AUUCACCUAGGUCUUCGGGAG [Fam2.2 aminoacylation ribozyme variant]
result: 4.51

query: Please supply the value of reported self-aminoacylation for the item CUAGUUCAAAGAAUCGGUCUG [Fam1A.1 aminoacylation ribozyme variant]
result: 1.5

* * *

# Tested on: biotinyl-Val-oxazolone
# assayName: self-aminoacylation, catalytic enhancement (BVO) (fold over background); higher = more active; k-Seq, kA / k0A0; sequences stand for … in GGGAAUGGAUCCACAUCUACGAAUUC…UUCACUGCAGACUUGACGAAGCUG
This sample holds only a part of the variants without activity.
Could you label it Yes if measured self-aminoacylation is 3 or higher, and No otherwise?

[
  {
    "macromoleculeSequence": "AUUGCCCUGGGCAUCGAGUGA [Fam2.1 aminoacylation ribozyme variant]",
    "discreteLabel": "Yes"
  },
  {
    "macromoleculeSequence": "AUUCUUCAAACAAUCGGUCUG [Fam1A.1 aminoacylation ribozyme variant]",
    "discreteLabel": "No"
  },
  {
    "macromoleculeSequence": "AUUCCCCUAGGUCGUCGGGUG [Fam2.2 aminoacylation ribozyme variant]",
    "discreteLabel": "Yes"
  },
  {
    "macromoleculeSequence": "AUUCACGAAGGUCAUCGGGUG [Fam2.2 aminoacylation ribozyme variant]",
    "discreteLabel": "Yes"
  },
  {
    "macromoleculeSequence": "AAGUAUGCUAAUAGUCUCAAG [Fam3.1 aminoacylation ribozyme variant]",
    "discreteLabel": "No"
  },
  {
    "macromoleculeSequence": "AAGUUCGCUAAUAGUCACAAG [Fam3.1 aminoacylation ribozyme variant]",
    "discreteLabel": "No"
  },
  {
    "macromoleculeSequence": "AAGUUUGCUGAUAGUAGCAAG [Fam3.1 aminoacylation ribozyme variant]",
    "discreteLabel": "No"
  }
]

# next sequence below
query: Can ACUACUCUGGUCAUCGAGUGA [Fam2.1 aminoacylation ribozyme variant] be said to have self-aminoacylation at or above 3?
result: Yes

* * *

# System: biotinyl-Leu-oxazolone
# assayName: self-aminoacylation, catalytic enhancement (BLO) (fold over background); higher = more active; k-Seq, kA / k0A0; sequences stand for … in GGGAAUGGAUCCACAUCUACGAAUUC…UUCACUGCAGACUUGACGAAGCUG
This sample holds only a part of the variants without activity.
Could you label it Satisfied if measured self-aminoacylation is 2 or higher, and Not satisfied otherwise?

// below: answered sequences
[
  {
    "macromoleculeSequence": "AUGACCCUGGUCAUCCAGUGA [Fam2.1 aminoacylation ribozyme variant]",
    "discreteLabel": "Satisfied"
  },
  {
    "macromoleculeSequence": "CCAGUCUUCAAGCAAUCGGUC [Fam1B.1 aminoacylation ribozyme variant]",
    "discreteLabel": "Satisfied"
  },
  {
    "macromoleculeSequence": "AUUACCCUGGUCAUCUAGUAA [Fam2.1 aminoacylation ribozyme variant]",
    "discreteLabel": "Not satisfied"
  }
]

query: Can AUUAUCCUGGUCAUCGAGUGC [Fam2.1 aminoacylation ribozyme variant] be said to have self-aminoacylation at or above 2?
result: Satisfied

query: Can AUUCACCUAGAUCAACGGGUG [Fam2.2 aminoacylation ribozyme variant] be said to have self-aminoacylation at or above 2?
result: Satisfied

query: Can AUUACCUUGGUCUUCGAGUGA [Fam2.1 aminoacylation ribozyme variant] be said to have self-aminoacylation at or above 2?
result: Satisfied

query: Can UUUCACCUAGGACAUCGGGUG [Fam2.2 aminoacylation ribozyme variant] be said to have self-aminoacylation at or above 2?
result: Satisfied

query: Can AUUCCCCUGGUGAUCGAGUGA [Fam2.1 aminoacylation ribozyme variant] be said to have self-aminoacylation at or above 2?
result: Satisfied

query: Can GUUCACCUAGGUCAUGGGGUG [Fam2.2 aminoacylation ribozyme variant] be said to have self-aminoacylation at or above 2?
result: Satisfied

* * *

Parameter self-aminoacylation: see the listing below.
# System: biotinyl-Met-oxazolone
# assayName: self-aminoacylation, catalytic enhancement (BMO) (fold over background); higher = more active; k-Seq, kA / k0A0; sequences stand for … in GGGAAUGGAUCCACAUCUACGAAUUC…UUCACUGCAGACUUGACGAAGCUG
Fewer inactive variants are shown than the library holds.
Respond using a number only.

Some sequences with recorded self-aminoacylation:
[
  {
    "macromoleculeSequence": "AUUACCCUGCGCAUCGAGUGA [Fam2.1 aminoacylation ribozyme variant]",
    "self-aminoacylation": 5.86
  },
  {
    "macromoleculeSequence": "CUACUACAAACAACCGGUCUG [Fam1A.1 aminoacylation ribozyme variant]",
    "self-aminoacylation": 0.601
  },
  {
    "macromoleculeSequence": "CCACACUUUAAGCAAUCGGAC [Fam1B.1 aminoacylation ribozyme variant]",
    "self-aminoacylation": 0.664
  },
  {
    "macromoleculeSequence": "ACACACUUCAAGCAAGCGGUC [Fam1B.1 aminoacylation ribozyme variant]",
    "self-aminoacylation": 1.33
  },
  {
    "macromoleculeSequence": "CUGCUUCAAACAAUCGGUCUU [Fam1A.1 aminoacylation ribozyme variant]",
    "self-aminoacylation": 1.91
  }
]

query: Please supply the value of reported self-aminoacylation for the item AUUACCAUGGUCAUCGCGUGA [Fam2.1 aminoacylation ribozyme variant]
result: 24.6

query: Please supply the value of reported self-aminoacylation for the item CCACACUUCAAGCAAUCGCGC [Fam1B.1 aminoacylation ribozyme variant]
result: 2.16

query: Please supply the value of reported self-aminoacylation for the item CUACUCCAAACAAACGGUCUG [Fam1A.1 aminoacylation ribozyme variant]
result: 0.531

* * *

# Tested on: biotinyl-Ile-oxazolone
# assayName: self-aminoacylation, catalytic enhancement (BIO) (fold over background); higher = more active; k-Seq, kA / k0A0; sequences stand for … in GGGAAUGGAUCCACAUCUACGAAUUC…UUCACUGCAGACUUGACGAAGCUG
Variants at the floor of the assay were thinned out.
Parameter self-aminoacylation: see the listing below.
Respond using a number only.

Some sequences with recorded self-aminoacylation:
[
  {
    "macromoleculeSequence": "CUACACUUCAAGCAAUCGGUA [Fam1B.1 aminoacylation ribozyme variant]",
    "quantitativeResult": 0.739
  },
  {
    "macromoleculeSequence": "CCACACUUCAAGCAAUCGUUG [Fam1B.1 aminoacylation ribozyme variant]",
    "quantitativeResult": 0.944
  },
  {
    "macromoleculeSequence": "CUUCAACUAGGUCAUCGGGUG [Fam2.2 aminoacylation ribozyme variant]",
    "quantitativeResult": 3.17
  }
]

Let us move to another entry and its self-aminoacylation.
query: Please supply the value of reported self-aminoacylation for the item AAGAUUGCAAAUAGUCGCAAG [Fam3.1 aminoacylation ribozyme variant]
result: 1.43
